# Study system: BTK (Homo sapiens, UniProt Q06187)
# Sequence (Q06187 402-655 limits assumed): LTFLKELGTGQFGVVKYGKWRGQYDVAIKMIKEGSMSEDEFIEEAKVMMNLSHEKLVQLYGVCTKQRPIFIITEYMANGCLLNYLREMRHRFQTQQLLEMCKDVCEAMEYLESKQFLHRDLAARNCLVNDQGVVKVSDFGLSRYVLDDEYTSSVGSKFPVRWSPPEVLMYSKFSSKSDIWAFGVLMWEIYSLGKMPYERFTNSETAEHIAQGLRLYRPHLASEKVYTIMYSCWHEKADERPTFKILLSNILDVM
# Experiment description: biochemical
# Protocol conditions: read-out: BTK inhibition (%), 0.75 uM BTK, […] probe 3l, 15 min preincubation
// reported inhibition at 10 µM for each item listed
Numeric answer only, unit % assumed.

Study these solved cases before continuing.
# Compound, inhibition at 10 µM / %
rows = [
    ("O=C(Nc1ccc(Br)cc1)c1c(O)cccc1O [PCM-0215136]", 3.9),
    ("COc1ccc(-c2ccc3c(N4CCOC[C@@H]4C)nc(N4CCOC[C@@H]4C)nc3n2)cc1CO [PCM-0095110]", -8.3),
    ("C[C@@H]1O[C@@H](O[C@H]2[C@H](O[C@H]3C[C@]4(C)[C@H](C[C@@H](O)[C@@H]5[C@@H]([C@]6(C)CC[C@H](C(C)(C)O)O6)CC[C@]54C)[C@@]4(C)CC[C@H](O)C(C)(C)[C@H]34)O[C@H](CO)[C@@H](O)[C@@H]2O)[C@H](O)[C@H](O)[C@H]1O [PCM-0216458]", 1.5),
    ("C=C1CC[C@H]2C(=C)CC[C@H]3C(=C)C(=O)O[C@@H]3[C@@H]12 [PCM-0214878]", 32.7),
]

Need inhibition at 10 µM, item O=C(c1ccc(Cl)cc1Cl)n1nnc2ccccc21 [PCM-0215673] 17
